For each of the compounds below, state its TGI.
System: MDA-MB-435
experimental-protocol: NCI tumour cell line growth inhibition, 48 h

Use the examples below as a reference point.
[
  {
    "compound": "Cc1ccccc1N=Nc1cc(C)c(N=Nc2c(O)ccc3ccccc23)cc1C",
    "tested-on": "MDA-MB-435",
    "TGI": "> 100 µM"
  },
  {
    "compound": "COc1ccc2[nH]c3c(C)c4ccnc(NCCCN(C)CCCNc5ccc6nnn7c8ccccc8c(=O)c5c67)c4c(C)c3c2c1",
    "tested-on": "MDA-MB-435",
    "TGI": "1.75 µM"
  },
  {
    "compound": "CCOC1CN(C)C(=Nc2cccc3ccccc23)S1 (centres undefined)",
    "tested-on": "MDA-MB-435",
    "TGI": "> 10 µM"
  }
]

Please report TGI for every entry that follows.
1. COC(=O)[C@@H](Nc1ccccc1)[C@@]1(C(=O)OC)SC12c1ccccc1-c1ccccc12
2. CC1(C)CCC(S(=O)(=O)c2ccc3c(c2)/C(=N\O)c2cc(S(=O)(=O)N4CCN(c5ccc(F)cc5O)CC4)ccc2-3)CC1
3. COC(O)C12OC3CO[Si](C(C)C)(C(C)C)O[Si](C(C)C)(C(C)C)OC3C1Oc1nc(=O)ccn12 (centres undefined)
4. OC(Cc1cccnc1)(c1ccccc1)c1ccccc1
5. O=C1C=Cc2cscc21

Response line:
1. > 100 µM
2. 0.251 µM
3. 26.7 µM
4. > 100 µM
5. > 100 µM

Please report TGI for every entry that follows.
1. C=C(C)[C@@H]1CC[C@]2(COC(C)=O)CC[C@]3(C)[C@H](CC[C@@H]4[C@@]5(C)CC[C@H](OC(C)=O)C(C)(C)[C@@H]5CC[C@]43C)[C@@H]12
2. Cc1ccc(N(C)S(=O)(=O)c2ccc([N+](=O)[O-])cc2)cc1
3. COc1cc(OC)cc(Oc2nc3cc(N)cc(N)c3nc2-c2ccccc2)c1
4. COC(=O)/C=C\n1ncc(=O)[nH]c1=O
5. COc1ccc(C(OCC2OC(n3cnc4c(=O)n(Cc5ccccc5[N+](=O)[O-])nnc43)C(O)C2O)(c2ccccc2)c2ccc(OC)cc2)cc1 (centres undefined)
6. Nc1nc2c(c3cnccc13)C(c1cccc(Br)c1)Cc1cnccc1-2 (centres undefined)
7. O=C(CC(=O)Nc1ccccc1Cl)NNC(c1cc(N=Nc2ccc(Br)cc2)ccc1O)P(O)O (centres undefined)

Response line:
1: > 50 µM; 2: > 100 µM; 3: 1.83 µM; 4: > 100 µM; 5: > 91.4 µM; 6: 0.571 µM; 7: > 10 µM

Please report TGI for every entry that follows.
1. O=C1Nc2c(Cl)cc(Cl)cc2/C1=N/N=C/c1ccccc1O
2. Cc1sccc1C(=S)Nc1ccc(Cl)c(/C=N/OC(C)(C)C)c1

Response line:
1. 51.6 µM
2. 50.9 µM

Please report TGI for every entry that follows.
1. C=CCN(C(=O)OC(C)(C)C)C1=CC2C(C)=CN(S(=O)(=O)c3ccccc3)C2C(OCc2ccccc2)=C1 (centres undefined)
2. Cc1c(NC(=O)c2cc(C(N)=O)nc3cc(F)ccc23)c(C(F)(F)F)nn1Cc1ccc(C#N)cc1

Response line:
1. > 100 µM
2. > 100 µM

###

System: KM20L2 colon
experimental-protocol: NCI tumour cell line growth inhibition, 48 h
assay-readout: TGI

Use the examples below as a reference point.
[
  {
    "compound": "O=c1nc2sc3ccc4ccccc4c3n2nc1-c1ccccc1",
    "TGI": "> 100 µM"
  },
  {
    "compound": "CC1=NC(C(=O)O)Cc2c1[nH]c1ccccc21 (stereo not drawn)",
    "TGI": "> 100 µM"
  },
  {
    "compound": "COc1ccc(C23c4ccc(OC)cc4CC2(c2ccc([N+](=O)[O-])cc2)Cc2cc(OC)ccc23)cc1 (stereo not drawn)",
    "TGI": "> 44.9 µM"
  },
  {
    "compound": "CC1CC(c2ccc(Cl)cc2)=Nc2ccccc2S1 (stereo not drawn)",
    "TGI": "> 100 µM"
  },
  {
    "compound": "O=C([O-])c1ccc2c(c1)-c1nc-2nc2[n-]c(nc3nc(nc4[n-]c(n1)c1ccc(C(=O)[O-])cc41)-c1ccc(C(=O)[O-])cc1-3)c1ccc(C(=O)[O-])cc21.[Gd+3].[K+]",
    "TGI": "> 100 µM"
  }
]

Please report TGI for every entry that follows.
1. Cc1nc(-c2nc(C)c(C(=O)/C=C/c3ccc(N(C)C)cc3)s2)sc1C(=O)/C=C/c1ccc(N(C)C)cc1
2. O=C(c1ccccc1)N1C2C3CC(OCc4ccccc4)(OCc4ccccc4)C(O3)C21 (stereo not drawn)
3. Cc1ccnc(NS(=O)(=O)c2ccc(NC3=CC(=O)C(=O)c4ccccc43)cc2)n1
4. O=C1NC(=O)C(C(=O)C(=O)Nc2cccc(C(F)(F)F)c2)C(=O)N1
5. Cc1[nH]c2c(C)cccc2c1C1Cc2ccccc2N1 (stereo not drawn)
6. CCCCC1=C(Br)C(=C(Br)Br)OC1=O
7. CN(O)C(=O)c1ccccc1

Response line:
> 100 µM
> 100 µM
> 100 µM
> 100 µM
31.4 µM
24.8 µM
> 100 µM

Prompt line: Which TGI is reported with KM20L2 colon for this entry: COc1ccccc1N=Nc1c(-c2ccccc2)nn(C(=O)CC(=O)Nc2ccccc2Cl)c1-c1ccccc1 ?
Response line: > 100 µM

###

System: HL-60(TB) leukemia
experimental-protocol: NCI tumour cell line growth inhibition, 48 h
For each of the compounds below, state its TGI.
Numbers only, in µM.

Use the examples below as a reference point.
[
  {
    "compound": "COc1ccc2c(CCC(c3ccccc3)c3ccccc3)c3[n+](cc2c1OC)CCc1cc2c(cc1-3)OCO2",
    "reported-measurement": 0.526
  },
  {
    "compound": "COc1cc(/C=C2\\CC3C4CCC5=CC(=O)CC[C@]5(C)C4CC[C@]3(C)C2=O)ccc1OCCCn1ccnc1 (stereo not given in full)",
    "reported-measurement": 10.2
  },
  {
    "compound": "O=C(C(=NC12CC3CC(CC(C3)C1)C2)NNc1ccc([N+](=O)[O-])cc1[N+](=O)[O-])C(Br)C(=O)c1ccccc1 (stereo not given)",
    "reported-measurement": 5.57
  }
]

// below: TGI requested for another compound
Prompt line: Reported TGI, compound CC(=O)OCC1OC(OC2=C(CC=C(C)C)C(=O)c3ccccc3C2=O)C(OC(C)=O)C(OC(C)=O)C1OC(C)=O (stereo not given) : ____
Response line: 6.62

###

System: SF-295 CNS
experimental-protocol: NCI tumour cell line growth inhibition, 48 h
For each of the molecules below, state its TGI.

[
  {
    "molecule": "COc1cc(/C=N/NC(=O)c2ccc(NC(C)=O)cc2OC)ccc1O",
    "reported-measurement": "> 100 µM"
  },
  {
    "molecule": "Cn1cc(C2=C(Sc3ccccc3)C(=O)NC2=O)c2ccccc21",
    "reported-measurement": "> 25 µM"
  },
  {
    "molecule": "CNC(=O)CCC(NC(=O)OC(C)(C)C)C(=O)NC(Cc1ccc(NC(=O)CCCCC(C)=O)cc1)C(=O)NCC(=O)NC (stereo unspecified)",
    "reported-measurement": "> 100 µM"
  },
  {
    "molecule": "CCN(C1=CC(=O)NC2CCCCN12)c1ccccc1 (stereo unspecified)",
    "reported-measurement": "> 100 µM"
  },
  {
    "molecule": "Cc1ccccc1N=Nc1cc(C)c(N=Nc2c(O)ccc3ccccc23)cc1C",
    "reported-measurement": "> 100 µM"
  },
  {
    "molecule": "CC(C)(O)c1coc(S(=O)(=O)/N=C(\\O)Nc2c3c(cc4c2CCC4)CCC3)c1",
    "reported-measurement": "> 100 µM"
  }
]

Please report TGI for every entry that follows.
1. CCOC(=O)C=C1CCC2(CC1)OCCO2
2. CC/C(CC(=O)CCC(=O)Nc1c(C)cccc1C)=N\NC(=O)NN
3. CC(NC(=O)C(C)C(=O)Nc1ccc(C(F)(F)F)cc1)C(N)=O (stereo unspecified)
4. O=C1c2cccc3cc4ccccc4c(c23)C(=O)N1CCNCCNCCNCCN1C(=O)c2cccc3cc4ccccc4c(c23)C1=O
5. COc1ccc(C23c4ccc(OC)cc4CC2(c2ccc([N+](=O)[O-])cc2)Cc2cc(OC)ccc23)cc1 (stereo unspecified)

Response line:
["> 100 µM", "> 100 µM", "> 100 µM", "0.281 µM", "> 100 µM"]

###

System: OVCAR-4 ovarian
experimental-protocol: NCI tumour cell line growth inhibition, 48 h
For each of the molecules below, state its TGI.

[
  {
    "molecule": "N#CCCC(CC#N)N1CCN(C(CC#N)CCC#N)CC1 (stereo not given)",
    "TGI": "> 100 µM"
  },
  {
    "molecule": "COc1cc(C(=O)/C=C/c2c(-c3cccs3)nc3sc(C)cn23)cc(OC)c1OC",
    "TGI": "22.3 µM"
  },
  {
    "molecule": "C/C(=N\\N(C)C)C(CN1CCCCC1)C(c1ccccc1)c1c(O)c2ccccc2oc1=O (stereo not given)",
    "TGI": "> 100 µM"
  }
]

Please report TGI for every entry that follows.
1. C=C(C)[C@@H]1CC[C@]2(COC(C)=O)CC[C@]3(C)[C@H](CC[C@@H]4[C@@]5(C)CC[C@H](OC(C)=O)C(C)(C)[C@@H]5CC[C@]43C)[C@@H]12
2. c1cc(N2CCCC2)c2nc(-c3[nH]ncc3Nc3ncnc4[nH]ccc34)[nH]c2c1
3. CSC1(C)CC2C(CC1N1CCCCC1)C2(C)C (stereo not given)
4. CNC(=O)CCC(NC(=O)OC(C)(C)C)C(=O)NC(Cc1ccc(NC(=O)CCCCC(C)=O)cc1)C(=O)NCC(=O)NC (stereo not given)
5. CC(=O)Nc1cc(C(=O)Nc2cc(C(=O)Nc3cc(C(=O)Nc4cc(C(=O)Nc5cc(C(=O)NCCC(=O)NCCCN(C)C)n(C)c5)n(C)c4)n(C)c3)n(C)c2)n(C)c1
6. CC[C@H]1C[C@@H](O)[C@@H]2[C@H](O)[C@H](O)CN2C1
7. NC(=O)NN=C1C[C@H]2CCCC[C@H]2C1

Response line:
1. > 50 µM
2. 1.14 µM
3. > 100 µM
4. > 100 µM
5. > 100 µM
6. > 100 µM
7. > 100 µM
